Tested on: SK-OV-3 ovarian
Experiment: NCI-60 one-dose screen, 48 h (100 = growth as untreated, 0 = no growth, -100 = all killed)
Conditions: 10 µM unless noted
About 83,000 compounds went through this panel and 20% of them were active in at least one assay; those are over-represented in the sample as a whole.
Reported values of growth for individual entries
measuredMetric: growth (%)

- CCCCN(CCCC)C(=N)c1ccnc2ccccc12: 112
- COc1cccc(/C=C2\Oc3cc(OCCCN4CCCC4)ccc3C2=O)c1: 109
- CCN1CCN(c2nc(NNC(=O)c3ccccc3)nc(N3CCN(C(c4ccccc4)c4ccccc4)CC3)n2)CC1: 89.7
- COc1ccc(C(=O)N2NC(=O)/C(=C/c3cn(-c4ccccc4)nc3-c3ccccc3)N=C2c2ccccc2)cc1: 107
- O=c1ccn(C2CC(O)C(O)C(CO)O2)c(=O)[nH]1 (stereo not given): 114
- CC(C)(C)OC(=O)NCCc1ccc(N=C=S)cc1: 97.1
- C=C1C(=O)O[C@@H]2[C@@H]3O[C@@](C)(CC/C=C(\C)CCC[C@@H]2C)[C@H](O)C[C@@H]13: 92
- O=C(NCc1cn(Cc2cccc(Oc3ccccc3)c2)nn1)c1cccnc1Nc1ccc(F)cc1: 52.2
- CCN(CC)CCCNc1nccc2ccc(Cl)cc12: 100
- CC(=O)Oc1csc(N(C(C)=O)c2cccc(C(F)(F)F)c2)n1: 99.6

====

Test system: UO-31 renal
Assay: NCI-60 one-dose screen, 48 h (100 = growth as untreated, 0 = no growth, -100 = all killed)
Conditions: 10 µM unless noted
About 83,000 compounds went through this panel and 20% of them were active in at least one assay; those are over-represented in the sample as a whole.
measuredMetric: growth (%)

- COc1ccc(/C=C2\N=C(c3ccccc3)N(C(=O)c3ccccc3O)NC2=O)cc1: 95.9
- CCCCN(CCCC)C(=O)CC: 99.5
- COc1ccc2[nH]c(=O)c3c4ccccc4cn3c2c1: 9.09
- O=[N+]([O-])c1ccc(OCCCOc2ccccc2)cc1: 87.2
- CCCCN(CCCC)C(=N)c1ccnc2ccccc12: 89.7
- COc1ccc(C2C=C(c3ccc(Cl)cc3)N=C3SC=C(C)N32)c(Br)c1 (stereo unspecified): 40.7

====

System: NCI-H226 lung
Assay: NCI-60 one-dose screen, 48 h
Conditions: 10 µM unless noted
The panel holds about 83,000 compounds, 20% with a hit somewhere; the sample as a whole holds those more often. Active and inactive are the calls of the source. Rule for the calls: active = growth percent below 10; inactive = the rest.
Possible outcomes: active, inactive

* O=C1NC(=C(Cl)Cl)/C(=N/S(=O)(=O)N2CCC(C3(C(F)(F)F)N=N3)CC2)N1 | inactive
* CN(C)c1ncnc2c1ccn2C1OC(CO)C(O)C1O (stereo unspecified) | inactive
* COc1ccc(NC(=O)c2c(Nc3ccc(OC)cc3OC)n[nH]c2N)c(OC)c1 | inactive
* Nc1nc(-c2ccccc2)c(CCCOc2ccc(NC(=O)CBr)cc2)c(=O)[nH]1 | inactive
* CC(C)(C)Nc1c(-c2cccs2)nc2ncccn12 | inactive
* O=C(Nc1cccc(-n2cc(-c3ccncc3)c(-c3ccc(Cl)c(O)c3)n2)c1)c1ccccc1 | inactive
* COc1ccc(Cn2cc3c(c2-c2cc(OC)c(OC)c(OC)c2)CCc2cnoc2-3)cc1 | inactive
* S=C(S)NCCc1c[nH]c2ccccc12 | inactive
* CCCCCCCCCCCCCCCCCCNC(=O)[C@H]1CSC(c2cccs2)N1 (stereo partly specified) | active
* C=C1CCC2C(C)(CO)C(O)CCC2(C)C1C/C=C1/C(=O)OCC1Oc1ccccc1C (stereo unspecified) | inactive
* CCOC(=O)C1=C(C)NC(C)=C(C(=O)OCC)C1(C)C | inactive
* C=C(C)[C@@H]1C[C@@H]2Cc3ccc(Cl)c(C)c3N1O2 | inactive
* COc1ccc(/C=N\NC(=O)CN2CCN(c3cc4c(cc3F)c(=O)c(C(=O)N/N=C/c3ccc(OC)c(OC)c3)cn4C3CC3)CC2)cc1OC | inactive
* COc1cc(-c2nn(-c3cccc(NC(=O)Nc4ccc(Cl)c(Cl)c4)c3)cc2-c2ccncc2)ccc1Cl | active
* CC(C)c1ccc2occ(C=C3C(=O)NC(=O)NC3=O)c(=O)c2c1 | inactive
* COc1ccc(C(=O)n2nc(/C=C/c3ccc(O)c(OC)c3)cc2/C=C/c2ccc(O)c(OC)c2)cc1 | inactive
* NC(N)=N/N=C/c1ccc(-c2ccc(-c3cc(Cl)cc(Cl)c3)s2)cc1 | inactive
* CC(C)(C)N1CCC1C(N)=O (stereo unspecified) | inactive
* O=C([O][Sn]([O]C(=O)c1ccccn1)([c]1ccccc1)[c]1ccccc1)c1ccccn1 | inactive
* Cc1ccc(S(=O)(=O)C2=C3C(=C(c4ccccc4)c4ccccc43)CN(S(=O)(=O)c3ccc(C)cc3)C2)cc1 | inactive
* CN(C)CCCC(C#N)c1ccccc1 (stereo unspecified) | inactive

====

Tested on: UACC-257 melanoma
Assay: NCI-60 one-dose screen, 48 h (100 = growth as untreated, 0 = no growth, -100 = all killed)
Settings: 10 µM unless noted
Description: Cells are grown in 96 well plates and exposed to the test compound for 48 hours. Compounds are tested at a single concentration, which is 10^-5 M for most compounds. The reported endpoint is percent growth (GI% or GIPRCNT), where numbers from 0 - 100% represent growth inhibition, and numbers from -100% - 0 represent cell death. For example, a value of 40 represents 60% growth inhibition. A value of 0 means no net growth occurred over the course of the experiment. […]
The panel holds about 83,000 compounds, 20% with a hit somewhere; the sample as a whole holds those more often.
measuredMetric: growth (%)

- COc1ccc(-c2ccc(C)n2-c2ccc(-c3nc4ccccc4s3)cc2)cc1: 109
- COc1cccc(-c2nc3sccn3c2-c2ccnc(NCCCNS(=O)(=O)c3ccc(C(F)(F)F)cc3)c2)c1: 61.7
- COc1ccc(C(=O)N2NC(=O)/C(=C/c3cn(-c4ccccc4)nc3-c3ccccc3)N=C2c2ccccc2)cc1: 95
- COc1cccc(/C=C2\Oc3cc(OCCCN4CCCC4)ccc3C2=O)c1OC: 99.3
- CCN(CC)CCC(CNc1ccnc2cc(Cl)ccc12)c1ccc(Cl)cc1 (stereo not given): -79.4
- CC1=C(C#N)C(=O)NC(C)C1 (stereo not given): 102
- C=C1CCC[C@]2(C)CCC[C@H](C)[C@@H](OC(C)=O)[C@@H]3OC(=O)C(=C)[C@@H]3C[C@H]1O2: 74.3
- COc1ccc(-n2c(=O)sc3c(Cl)nc(C)nc32)c(OC)c1: 85.1
- Clc1cc2c(nn1)Nc1ccccc1S2: 73.5
- COc1ccccc1CNCCCN1C(=O)c2ccc3c4c(ccc(c24)C1=O)C(=O)N(CCCNCCCCNCCCN)C3=O: -91.1
- CCC(C)/C(=C\C#N)NCCCN/C(=C/C#N)C(C)CC (stereo not given): 106
- O=S(=O)(c1ccc(OCCO)cc1)c1ccc(OCCO)cc1: 85.7
- C=C(C)[C@@H]1CC[C@]2(C(=O)N3CCNCC3)CC[C@]3(C)[C@H](CC[C@@H]4[C@@]5(C)C/C(=C/c6ccncc6)C(=O)C(C)(C)[C@@H]5CC[C@]43C)[C@@H]12: 104
- Cc1ccc(/C=C2\CN(C(=O)CCN3CCC(=NO)CC3)C/C(=C\c3ccc(C)cc3)C2=O)cc1: 44.9
- O=C(NS(=O)(=O)c1ccc2ccccc2c1)n1cc(-c2ccncc2)c(-c2ccc(Cl)c(O)c2)n1: 31.9
- CC(=O)Nc1scc[n+]1Cc1ccccc1: 107
- COc1ccc(C(=O)n2nc(/C=C/c3ccc(O)c(OC)c3)cc2/C=C/c2ccc(O)c(OC)c2)cc1: 0.119
- COc1ccc2cc(-c3ccc(-c4ccc(C(=N)N)cc4)s3)ccc2c1: 104
- O=C(O)COc1ccc(-c2cssc2=S)cc1: 94.5
- COc1ccc(C2NN=C3c4ccccc4CCC32)cc1 (stereo not given): 60.1

====

Tested on: SF-295 CNS
Assay: NCI-60 one-dose screen, 48 h (100 = growth as untreated, 0 = no growth, -100 = all killed)
Details: 10 µM unless noted
Compounds without any hit were thinned out: in the full panel of roughly 83,000, 20% have a hit.
measuredMetric: growth (%)

- COc1ccc(-c2nc3sc(-c4cc(OC)c(OC)c(OC)c4)nn3c2/C=C2/C(=O)Nc3ccc(F)cc32)cc1: -17.2
- Clc1cc(Cl)cc(-c2ccc(-c3ccc(/C=N/NC4=NCCN4)cc3)s2)c1: 93.7
- ClC(Cl)c1nc(-c2cccnc2)n2nc(-c3ccccc3)cc2n1: 0.57
- COc1ccncc1S(=O)(=O)NC(=O)Nc1ccc(Cl)c(Cl)c1: 85.4
- Cc1nc2ncccc2nc1Nc1ccc(S(=O)(=O)Nc2ccccn2)cc1: 104
- CCN(CC)CCOc1ccc(/C(=C(/C)c2ccccc2)c2ccc(OC(C)=O)cc2)cc1: 103
- Cc1cc(C2(c3cc(C)c(O)cc3C)OS(=O)(=O)c3ccccc32)c(C)cc1O: 107
- COc1ccc(-n2c(=S)sc3c(Cl)nc(C)nc32)c(OC)c1: 85.1
- NC(=O)CCCN1C/C(=C\c2ccccc2)C(=O)c2ccccc21: 94.3
- CN(C)CCCC(C#N)c1ccccc1 (centres undefined): 110
- CCOC(=O)c1ccc2c(c1)nc(-c1ccc(OCc3ccccc3)c(OC)c1)n2-c1cc(C(C)(C)C)[nH]n1: 35.8
- Nc1ncnc2c1c(-c1ccc(Oc3ccccc3)cc1)nn2C[C@@H]1SSC[C@@H]1O: 38.3
- CC(C)(C)OC(=O)NCCc1ccc(N=C=S)cc1: 55.5
- COc1cc(NC(N)=NCCC(C)(C)c2ccc(C(F)(F)F)cc2)ncc1C#N: 25.9
- COc1ccc(NC(=O)c2cc(OC)c(OC)c(OC)c2)cc1O: 35.5
- CN(C)c1oc(C2OC2c2ccccc2)nc1C#N (centres undefined): 98.8
- COc1cc(/C=N\NC(=O)CN2CCN(c3cc4c(cc3F)c(=O)c(C(=O)N/N=C/c3cc(OC)c(OC)c(OC)c3)cn4C3CC3)CC2)cc(OC)c1OC: 17.4
- C=C1CCC2C(C)(CO)C(O)CCC2(C)C1CC(NCc1ccccc1)C1=CCOC1=O (centres undefined): 111
- CC(C)(C)n1cc(-c2ccnc(NCCCNS(=O)(=O)c3ccccc3)c2)c(-c2cccc(O)c2)n1: 35.1
- N#Cc1c(-c2ccccc2)cc(-c2ccccc2)n(CC(=O)NO)c1=O: 63.5
- COc1ccc(Nc2[nH]n3c(=O)cc(C)nc3c2C(N)=O)c(OC)c1: 102
- OB(O)c1cccc(-c2nc3ccc4[nH]ncc4c3c3c2CCCC3)c1F: 69.3
- CCCCC(CC)OC(=O)C(Br)CC (centres undefined): 97.5
- COc1ccc2c(c1)NC1=C(C(=O)OC1)C2c1cc(OC)c2c(c1)OCO2 (centres undefined): 6.7
- CN1C=CN(Cc2ccc(-c3ccccn3)nc2)[CH-]1.CN1C=CN(Cc2ccc(-c3ccccn3)nc2)[CH-]1.[Au+3]: 17.3
- CC(=O)Oc1cccc(S(=O)(=O)n2cc(C(=O)C(=O)Nc3ccncc3)c3ccccc32)c1: 58.5
- COc1cc(NCCCCCN)c2ncccc2c1: 112
- COc1ccc(C(=O)n2nc(/C=C/c3ccc(O)c(OC)c3)cc2/C=C/c2ccc(O)c(OC)c2)cc1: 6.61
- S=c1[nH]nc(-c2cc3ccc2CCc2ccc(cc2)CC3)n1-c1ccccc1: 91.7
- C=C1CCC[C@]2(C)CCC[C@H](C)[C@@H](OC(C)=O)[C@@H]3OC(=O)C(=C)[C@@H]3C[C@H]1O2: 80.2
- CC12CCC3C4(C)COC(c5ccco5)OC4CCC3(C)C1CC(C1=CCOC1=O)O2 (centres undefined): 97.9
- Cc1nn(-c2ccc(Cl)cc2)c2ncnc(N/N=C/c3cccc([N+](=O)[O-])c3)c12: 101
- C=C1CCC2C3(C)COC(C)(C)OC3CCC2(C)C1C/C=C1/C(=O)OCC1Oc1ccccc1OC (centres undefined): 101
- CC(C)(C)n1cc(-c2ccnc(NCCCNS(=O)(=O)c3cccc(F)c3)c2)c(-c2cccc(O)c2)n1: 31.6
- COc1ccc(/C=C\c2cc(OC)c(OC)c(OC)c2)cc1OC(=O)c1cccc(Cn2cc(CCOC(=O)c3cccc(Cn4nnc5c4C(=O)c4ccccc4C5=O)c3)nn2)c1: 11
- COc1cc(/C=C/c2cc(/C=C/c3ccc(O)c(OC)c3)n(C(N)=O)n2)ccc1O: 4.87
- C=C(C)[C@@H]1C[C@@H]2Cc3cc(F)ccc3N1O2: 106
- Cn1cc(-c2cnc3ccc(NC(=O)Nc4ccc(F)c(Br)c4)cc3n2)cn1: -3.9
- COc1ccc(C2=C(c3cc(OC)c(OC)c(OC)c3)C(=O)CC2)cc1: 9.47
